Target Of Assay: c-Src SH2;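 note: peptide library displayed on the E. coli surface as eCPX fusions, selected cells deep-sequenced, score is each peptide's frequency after selection divided by its frequency in the input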
Assay Protocol: SH2 binding enrichment of the phosphorylated peptide, bacterial display (enrichment ratio); higher = better substrate or ligand; peptides without Tyr show the background
Recorded Endpoint: SH2 binding enrichment

GDPTEYFSTAI [IGSF22_Y501_YF] ... 0.522
FVGGFYGGCNE [CTSC_Y352_YF] ... 0.589
FSEVRYVKEPF [HIPK4_Y170_YF] ... 0.487
LIFVSYDDWDY [GRIN2A_Y281_S278F] ... 1.16
PLKYLYPNIDK [STAT1_Y668] ... 0.825

# SH2 binding enrichment lookup, item RLGVTYEQALA [MAP2_Y996_G991R]
0.871

# SH2 binding enrichment lookup, item RHPFFYAPELL [ALB_Y174_YF]
0.988

Hey, just so you know, these numbers are from the supplement of paper PMC10065799.
